- EXPERIMENT SUMMARY: PK of compound of Formula (Ia) after single subcutaneous dose of solution formulations in Wistar Han rats
- Assay type: in vivo
- MEASUREMENT SETUP: male, Wistar Han, rat, plasma, sc, 50 mg/kg, 840 h; individual rats; SC 50 mg/kg; solution R, 400 mg/mL
- Procedure: Formulations containing the compound of Formula (Ia), or a pharmaceutically acceptable salt thereof, were prepared as solutions and optionally administered subcutaneously or intramuscularly to rats, rabbits, and/or dogs. A solution of about 400 mg/mL of the compound of Formula (Ia) having 19.14 w/w % water, 40.66 w/w % PEG 300, 35.20 w/w % of a sodium salt of a compound of Formula (Ia), and 5.00% ethanol was prepared. […]
QUANTITY NAME: concentration at 840 h (nM)
One number for each entry, in nM.

So what does the record say about concentration at 840 h for CC(C)(C#Cc1ccc(-c2ccc(Cl)c3c(NS(C)(=O)=O)nn(CC(F)(F)F)c23)c([C@H](Cc2cc(F)cc(F)c2)NC(=O)Cn2nc(C(F)(F)F)c3c2C(F)(F)[C@@H]2C[C@H]32)n1)S(C)(=O)=O [compound of Formula (Ia)] ?
295
